We begin with a simple list: items and their reported pEC50.
# system.tested: T1, Mouse IL-33 Flag®His (mouse)
# T1 construct: C-terminal FLAG 10xHis tag, E. coli; also called Mature Mouse IL-33_FH; mouse IL-33 FH
# T1 chain: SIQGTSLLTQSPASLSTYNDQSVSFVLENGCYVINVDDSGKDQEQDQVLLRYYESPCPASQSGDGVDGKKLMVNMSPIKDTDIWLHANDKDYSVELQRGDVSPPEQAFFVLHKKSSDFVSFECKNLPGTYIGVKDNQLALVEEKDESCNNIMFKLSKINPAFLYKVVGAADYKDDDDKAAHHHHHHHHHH
# assay.explanation: ELISA, biotinylated antigen on streptavidin plate, anti-human IgG HRP
As a rule, pEC50 stands for the negative log10 of the concentration, concentration in M.

# annotated cases, reported pEC50 shown
{"binder": "IL330107 IgG (antibody, V domains shown, IgG1 or IgG1-TM) VH: QMQLVQSGGGVVQPGGSLRLSCAASGFTFSSYAMSWVRQAPGKGLEWVSAISGSGGSTYYADSVKGRFTISRDNSKNTLYLQMNSLRAEDTAVYYCAKPFPSYWYFDLWGKGTLVTVSS VL: SYVLTQPPSVSVSPGQTARITCSGDALPKQYAYWYQQKPGQAPVLVIYKDSERPSGIPERFSGSSSGTTVTLTISGVQAEDEADYYCQSADSSGTYRVFGGGTQLTVL", "experimental.endpoint": "pEC50", "readout.number": 9.08}
{"binder": "IL330101 IgG (antibody, V domains shown, IgG1 or IgG1-TM; also called mAb IL330101; IL3300101) VH: EVQLLESGGGLVQPGGSLRLSCAASGFTFSSYAMSWVRQAPGKGLEWVSAISGSGGSTYYADSVKGRFTISRDNSKNTLYLQMNSLRAEDTAVYYCVRVVAGYFDSWGRGTLVTVSS VL: SYVLTQPPSVSVSPGQTARITCSGDALPKQYAHWYQQKPGQAPALVIYKDTERPSGIPERFSGSSSGTTVTLTISGVQAEDEADYYCQSADSSGASRVFGGGTKVTVL", "experimental.endpoint": "pEC50", "readout.number": 9.07}
{"binder": "IL330099 IgG (antibody, V domains shown, IgG1 or IgG1-TM) VH: QVQLQQSGAEVKKPGASVKVSCKASGYTFTSFYMNWVRQAPGQGLEWMGIISPRGGTTSYAQNFQGRVTMTRDTSTSTVYMELSGLRSDDTAVYYCATESFYYGSGTYSGDYYLYSGMADWGKGTLVTVSS VL: SSELTQDPAVSAALGQTVRITCQGDSLRSYYASWYQQKPGQAPVLVIYGKNDRPSGIPDRFSGSSSGNTASLTITGAQAEDEADYYCNSRDSSGNHVVFGGGTKLTVL", "experimental.endpoint": "pEC50", "readout.number": 9.42}

Q: # pEC50 lookup, item IL330149 IgG (antibody, V domains shown, IgG1 or IgG1-TM; also called IL33149) VH: EVQLLESGGGLVQPGGSLRLSCAASGFTFSSYAMSWVRQAPGKGLEWVSAISGSGGSTYYADSVKGRFTISRDNSKNTLYLQMNSLRAEDTAVYYCVRTLAYSTSWFFDYWGRGTLVTVSS VL: SYELTQPPAVSVSPGQTARITCSGDALPKKYAYWYQQKSGQAPVLVIYEDAKRPSGIPERFSGSSSGTMATLTVSGAQVEDEADYYCYSTDSSGPVFGGGTKLTVL
A: 9.77
